# pIC50 values compiled below
- tested system: A17 RT (Human immunodeficiency virus type 1 group M subtype B, UniProt P04585, K690N/Y768C)
- Construct: A17 RT was employed in the assay; made in house; host or cells: bacteria
- method notes: biochemical
- Design: species or system HIV-1
pIC50: −log10 of the molar value.
measured metric: pIC50

S=C1Nc2ccc(Cl)cc2C(C2CC2)(C2CC2)O1 ... < 3.52
CCCC1(CC)OC(=O)Nc2ccc(Cl)cc21 (stereo not shown) ... < 3.52
C#CC1(CCC)OC(=O)Nc2ccc(Cl)cc21 (stereo not shown) ... < 4.00
C=CCCC1(C(F)(F)F)OC(=O)Nc2ccc(Cl)cc21 (racemic) ... < 4.00
